All values here come from ChEMBL document CHEMBL5634143.

Each record here notes measured MIC.
System: Staphylococcus aureus
Assay: Antibacterial activity against methicilin-resistant Staphylococcus aureus 21455 assessed as inhibition of bacterial growth
Format: functional
Only the number, expressed in µg/mL, is required.

>  <molecular string>
CC[C@H](C)[C@H](NC(=O)[C@@H](Cc1ccccc1)NC)C(=O)N[C@@H](CCCNC(=N)N)C(=O)N[C@H](CCCNC(=N)N)C(=O)N[C@@H](C(=O)N[C@H](C(=O)N[C@@H](CO)C(=O)N[C@H]1C(=O)N[C@@H](CCCNC(=N)N)C(=O)N[C@@H](C2CCCCC2)C(=O)N[C@@H]([C@@H](C)CC)C(=O)O[C@H]1C)[C@@H](C)CC)[C@@H](C)CC

>  <MIC, µg/mL>
2

$$$$

Enquiry: Can you look up the measured MIC of `CCC[C@@H]1NC(=O)[C@H](CCCNC(=N)N)NC(=O)[C@H](NC(=O)[C@H](CO)NC(=O)[C@@H](NC(=O)[C@H](NC(=O)[C@@H](CCC(N)=O)NC(=O)[C@H](CCCNC(=N)N)NC(=O)[C@@H](NC(=O)[C@@H](Cc2ccccc2)NC)[C@@H](C)CC)[C@@H](C)CC)[C@@H](C)CC)[C@H](C)OC(=O)[C@H]([C@@H](C)CC)NC1=O` for me?
Return: 0.5

Enquiry: Can you look up the measured MIC of `CCC[C@@H]1NC(=O)[C@H](CCCNC(=N)N)NC(=O)[C@H](NC(=O)[C@H](CO)NC(=O)[C@@H](NC(=O)[C@H](NC(=O)[C@@H](CCC(N)=O)NC(=O)[C@H](CO)NC(=O)[C@@H](NC(=O)[C@@H](Cc2ccccc2)NC)[C@@H](C)CC)[C@@H](C)CC)[C@@H](C)CC)[C@H](C)OC(=O)[C@H]([C@@H](C)CC)NC1=O` for me?
Return: 0.25

* * *

System: Staphylococcus aureus
Assay: Antibacterial activity against methicilin-resistant Staphylococcus aureus ATCC 700699 assessed as inhibition of bacterial growth
Assay type: functional
result type: MIC (µg/mL)
Only the number, expressed in µg/mL, is required.

Here is how some compounds turned out for MIC.
>  <molecular string>
CC[C@H](C)[C@H](NC(=O)[C@@H](Cc1ccccc1)NC)C(=O)N[C@@H](CCCNC(=N)N)C(=O)N[C@H](CCCNC(=N)N)C(=O)N[C@@H](C(=O)N[C@H](C(=O)N[C@@H](CO)C(=O)N[C@H]1C(=O)N[C@@H](CCCNC(=N)N)C(=O)N[C@@H](C2CCCCC2)C(=O)N[C@@H]([C@@H](C)CC)C(=O)O[C@H]1C)[C@@H](C)CC)[C@@H](C)CC

>  <MIC / µg/mL>
1

$$$$
>  <molecular string>
CC[C@H](C)[C@H](NC(=O)[C@@H](Cc1ccccc1)NC)C(=O)N[C@@H](CO)C(=O)N[C@H](CCC(N)=O)C(=O)N[C@@H](C(=O)N[C@H](C(=O)N[C@@H](CO)C(=O)N[C@H]1C(=O)N[C@@H](C)C(=O)N[C@@H](C2CCCCC2)C(=O)N[C@@H]([C@@H](C)CC)C(=O)O[C@H]1C)[C@@H](C)CC)[C@@H](C)CC

>  <MIC / µg/mL>
0.125

$$$$
>  <molecular string>
CC[C@H](C)[C@H](NC(=O)[C@@H](Cc1ccccc1)NC)C(=O)N[C@@H](CO)C(=O)N[C@H](CCC(N)=O)C(=O)N[C@@H](C(=O)N[C@H](C(=O)N[C@@H](CO)C(=O)N[C@H]1C(=O)N[C@@H](CCCNC(=N)N)C(=O)N[C@@H](C2CCCCC2)C(=O)N[C@@H]([C@@H](C)CC)C(=O)O[C@H]1C)[C@@H](C)CC)[C@@H](C)CC

>  <MIC / µg/mL>
0.5

$$$$
>  <molecular string>
CC[C@H](C)[C@H](NC(=O)[C@@H](Cc1ccccc1)NC)C(=O)N[C@@H](CCCNC(=N)N)C(=O)N[C@H](CCCNC(=N)N)C(=O)N[C@@H](C(=O)N[C@H](C(=O)N[C@@H](CO)C(=O)N[C@H]1C(=O)N[C@@H](C)C(=O)N[C@@H](C2CCCCC2)C(=O)N[C@@H]([C@@H](C)CC)C(=O)O[C@H]1C)[C@@H](C)CC)[C@@H](C)CC

>  <MIC / µg/mL>
0.25

$$$$
>  <molecular string>
CC[C@H](C)[C@H](NC(=O)[C@@H](Cc1ccccc1)NC)C(=O)N[C@@H](CO)C(=O)N[C@H](CCCNC(=N)N)C(=O)N[C@@H](C(=O)N[C@H](C(=O)N[C@@H](CO)C(=O)N[C@H]1C(=O)N[C@@H](CCCNC(=N)N)C(=O)N[C@@H](C2CCCCC2)C(=O)N[C@@H]([C@@H](C)CC)C(=O)O[C@H]1C)[C@@H](C)CC)[C@@H](C)CC

>  <MIC / µg/mL>
0.5

$$$$

Enquiry: Can you look up the measured MIC of `CCCCCCCCCC(=O)N[C@@H](Cc1c[nH]c2ccccc12)C(=O)N[C@H](CC(N)=O)C(=O)N[C@@H](CC(=O)O)C(=O)N[C@@H]1C(=O)NCC(=O)N[C@@H](CCCN)C(=O)N[C@@H](CC(=O)O)C(=O)N[C@H](C)C(=O)N[C@@H](CC(=O)O)C(=O)NCC(=O)N[C@H](CO)C(=O)N[C@@H]([C@H](C)CC(=O)O)C(=O)N[C@@H](CC(=O)c2ccccc2N)C(=O)O[C@@H]1C` for me?
Return: 2
